Test: qHTS assay to identify small molecule agonists of the TGF-beta/Smad signaling pathway - cell viability counter screen (AID 1346829); further: top concentration of the series differs between compounds; on the % scale 0 is the no-effect control and ±100 the full control effect; nearly all actives have a fitted effect of over 45% in size
Conditions: SBE-bla HEK293T viability, CellTiter-Glo luminescence, 5 h; series mostly up to 76.8 µM
Inconclusive results are not listed. Activity calls are given as the source filed them. The call rests on the fitted dose curve; in most records, active means well fitted cell-killing curve with a large enough effect in the repeat runs; inconclusive means weak or mixed curves, or effect the other way; inactive means flat fitted curve, though single readings scatter.
recorded metric: activity change, negative = cytotoxicity

O=C(O)CN(CCCN(CC(=O)O)CC(=O)O)CC(=O)O    -5.77% [at 15.8 µM] (inactive)
COc1cc2ncnc(Nc3cccc(Cl)c3)c2cc1OC    9.42% [at 15.8 µM] (inactive)
CCCCCCCCCCCCS(=O)(=O)Cl    19.7% [at 15.8 µM] (inactive)
Nc1cccnc1N    inactive
Cc1cc(F)ccc1-c1cc(N2CC[C@@H](O)[C@H]2CO)ncc1N(C)C(=O)C(C)(C)c1cc(C(F)(F)F)cc(C(F)(F)F)c1    inactive
CN1CCN(CCCN2c3ccccc3Sc3ccc(Cl)cc32)CC1    inactive
CCOc1ccc([N+](=O)[O-])cc1    inactive
Cn1c(=O)[nH]c2ncn(C)c2c1=O    inactive
Cc1ccc(C2OC[C@@H]3OC(c4ccc(C)cc4)O[C@H]([C@H](O)CO)[C@@H]3O2)cc1 (stereo partly specified)    inactive
CCc1c(C)cc(N)c(CC)c1N    inactive
C=C(C)CCO    inactive

* * *

Assay: qHTS assay to identify small molecule antagonists of the retinoid-related orphan receptor gamma (ROR-gamma) signaling pathway - cell viability counter screen (AID 1159520); further: nearly all actives have a fitted effect of over 50% in size; further: potency means the concentration at half of the fitted maximal effect
Conditions: Tet-on RORgamma CHO cells viability, ATP luminescence, 16 h; series mostly up to 92.4 µM
Method: U.S. Tox21 Program National Center for Advancing Translational Sciences [NCATS] NIH Chemical Genomics Center [NCGC] U.S. Environmental Protection Agency [EPA] National Institutes of Environmental Health Sciences [NIEHS] National Toxicology Program [NTP] U.S. Food and Drug Administration [FDA] […] Reporter gene activity was induced using Doxycycline Hyclate and measured after 16 hr incubation. […]
Results filed as inconclusive are left out. Activity calls are given as the source filed them. Calls come from the whole dose curve; as a rule, active = well fitted cell-killing curve with a large enough effect in the repeat runs; inconclusive = weak or mixed curves, or effect the other way; inactive = no such curve, though single readings can be large or run the other way.
recorded metric: Potency

CN(C[C@@H](CC[N+]12CCC(C3CCCCC3)(CC1)CC2)c1ccc(Cl)c(Cl)c1)C(=O)c1cc(C(F)(F)F)cc(C(F)(F)F)c1    48.6 µM (active)
Nc1cc([N+](=O)[O-])cc(Cl)c1O    inactive
CCN(CC)c1ccc(C=O)cc1    inactive
ClC(c1ccccc1)(c1ccccc1)c1ccccc1    inactive
CN1CCN(CCCN2c3ccccc3Sc3ccc(Cl)cc32)CC1    inactive
CCCCCCCCOC(=O)c1cc(O)c(O)c(O)c1    2.43 µM (active)
C=C(C)CCO    inactive
COc1cc([C@@H]2c3cc4c(cc3[C@@H](O[C@@H]3O[C@@H]5CO[C@@H](C)O[C@H]5[C@H](O)[C@H]3O)[C@H]3COC(=O)[C@H]23)OCO4)cc(OC)c1O    inactive
CCOC(=O)OC(=O)OCC    inactive
CC1CCC(C(C)(C)O)CC1 (stereo not given)    inactive

* * *

Molecular target: Peroxisome proliferator-activated receptor gamma (Homo sapiens)
Assay: qHTS assay to identify small molecule agonists of the peroxisome proliferator-activated receptor gamma (PPARg) signaling pathway (AID 743094); further: on the % scale 0 is the no-effect control and ±100 the full control effect
Details: HEK293H PPARg-UAS-bla, beta-lactamase FRET ratio, 17 h; series mostly up to 57 µM
Inconclusive results are not listed. Activity calls are given as the source filed them. The call rests on the fitted dose curve; in most records, active means well fitted activation curve with a large enough effect in the signal ratio in the repeat runs (not every such curve was filed as active); inconclusive means weak or mixed curves, or effect the other way; inactive means no such curve, though single readings can be large or run the other way; the % refers to the signal ratio.
recorded metric: outcome

C[C@@H]1C(=O)NC2=Nc3cccc(Cl)c3CN21    inactive
C[C@@H]1O[C@@H](OC[C@H]2O[C@@H](Oc3c(-c4ccc(OCCO)c(OCCO)c4)oc4cc(OCCO)cc(O)c4c3=O)[C@H](O)[C@@H](O)[C@@H]2O)[C@H](O)[C@H](O)[C@H]1O    inactive
N[C@@H](Cc1ccc(O)c(O)c1)C(=O)O    inactive
O=C(O)COc1ccccc1/C=N/NC(=O)c1ccncc1    inactive
CCCCCCCCCCCCCCCCC(C(=O)O)C(O)(CC(=O)O)C(=O)O (stereo unspecified)    inactive
FC(F)(F)COCC(F)(F)F    inactive

The origin of these recorded values is PubChem BioAssay (Tox21).
